Assay: In vivo pharmacokinetic study after intraperitoneal administration, plasma LC-MS/MS
Details: male, mouse, ip; 5 mg/kg intraperitoneal, ICR mice, plasma, non-compartmental, n = 5; read-out: AUC0 − 48 h
Parameter: AUC(0-t) (ng·h/mL)
Report the value in ng·h/mL with no unit label.

Given COc1cc2c(=O)c3c(O)cccc3oc2c(OC)c1OC [HTX, 1-hydroxy-5,6,7-trimethoxyxanthone] , state its recorded AUC(0-t). 226

----------
Assay: In vivo pharmacokinetic study after intraperitoneal administration, plasma LC-MS/MS
Settings: male, mouse, ip; 5 mg/kg intraperitoneal, ICR mice, plasma, non-compartmental, n = 5
Parameter: AUC(0-inf) (ng·h/mL)
Answer format: numeric, ng·h/mL implied, no suffix.

I have this compound here, COc1cc2c(=O)c3c(O)cccc3oc2c(OC)c1OC [HTX, 1-hydroxy-5,6,7-trimethoxyxanthone] , and I need its recorded AUC(0-inf). 247
